test system: Escherichia coli TOP10; test: shrunken log2 fold change of peptide-encoding DNA abundance (4.5 h post-induction vs induction); higher = less antimicrobial activity (less host growth inhibition); details: time post-induction: 4.5 h; library: site-saturation at positions 5, 18, 19, 20;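 further: peptides expressed intracellularly from a pBAD plasmid library in pooled LB shake-flask culture, induced with 0.3% L-arabinose, DNA abundance read by NGS, three biological replicates, DESeq2 with apeglm shrinkage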
Returns the class for an entry based on its shrunken log2 fold change. Class ranges: bin A = under -0.06, bin B = from -0.06 up to 0.2, bin C = 0.2 and over

RRIRWRPPRLPRPRPRPGCNPRP ... bin A
RRIRMRPPRLPRPRPRPRENPRP ... bin C
RRIRQRPPRLPRPRPRPVAYPRP ... bin B
RRIRFRPPRLPRPRPRPSAGPRP ... bin B

# input Kindly identify the class of `RRIRMRPPRLPRPRPRPTQIPRP` .
# output bin C

# input Kindly identify the class of `RRIRFRPPRLPRPRPRPSITPRP` .
# output bin A

# input Kindly identify the class of `RRIRIRPPRLPRPRPRPRSRPRP` .
# output bin B

# input Kindly identify the class of `RRIRCRPPRLPRPRPRPKGKPRP` .
# output bin C
